- SUBJECT OF TEST: GABA-A receptor; alpha-1/beta-3/gamma-2 (Homo sapiens, UniProt P14867+P18507+P28472)
- Sequence (P14867 whole entry, one chain of several): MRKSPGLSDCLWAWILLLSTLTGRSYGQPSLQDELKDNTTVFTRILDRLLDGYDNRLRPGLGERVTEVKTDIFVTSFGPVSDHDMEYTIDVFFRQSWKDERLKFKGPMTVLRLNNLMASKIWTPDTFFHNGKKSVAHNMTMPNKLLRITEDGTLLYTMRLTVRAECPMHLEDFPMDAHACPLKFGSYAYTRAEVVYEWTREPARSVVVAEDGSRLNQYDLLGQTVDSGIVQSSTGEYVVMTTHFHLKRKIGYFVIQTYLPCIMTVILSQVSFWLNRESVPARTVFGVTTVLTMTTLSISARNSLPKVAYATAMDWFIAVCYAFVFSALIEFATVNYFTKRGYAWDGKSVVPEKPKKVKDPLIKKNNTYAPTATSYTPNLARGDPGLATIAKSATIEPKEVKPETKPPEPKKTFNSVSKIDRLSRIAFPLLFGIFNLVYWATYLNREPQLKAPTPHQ
- TEST DESCRIPTION: Displacement of [3H]flunitrazepam from human recombinant GABAA alpha-1-beta-3-gamma-2 receptor expressed in HEK cells by liquid scintillation counting
Give measured Ki for each item. Keep answers brief.
Please respond with the number in nM and leave the unit unwritten.

Task item: Suppose we examine the molecule CC(C)(C)OC(=O)c1cc2c(cn1)[nH]c1ccc(C(C)(C)C)cc12 ; what Ki value has been reported?
Reply: 2.78

Task item: Quick one: CCOC(=O)c1cc2c(cn1)[nH]c1ccc(C#C[Si](C)(C)C)cc12
Reply: 4.4

Task item: Quick one: CC(C)(C)OC(=O)c1cc2c(cn1)[nH]c1ccc(C#CC#Cc3ccc4[nH]c5cnc(C(=O)OC(C)(C)C)cc5c4c3)cc12
Reply: 120

Task item: Quick one: CC(C)(C)OC(=O)c1cc2c(cn1)[nH]c1ccc(-c3cccs3)cc12
Reply: 37

Task item: Quick one: CCC(C)OC(=O)c1cc2c(cn1)[nH]c1ccccc12 (stereo unspecified)
Reply: 18

Task item: Quick one: CC(C)(C)OC(=O)c1cc2c(cn1)[nH]c1ccc(F)cc12
Reply: 1.62

Task item: Quick one: CCCC(=O)c1cc2c(cn1)[nH]c1ccc(F)cc12
Reply: 3.7

Task item: Quick one: C[C@@H](OC(=O)c1cc2c(cn1)[nH]c1ccccc12)C(F)(F)F
Reply: 27

Task item: Quick one: CC(C)(C)OC(=O)c1cc2c(cn1)[nH]c1ccc(C#C[Si](C)(C)C)cc12
Reply: 6.8

Task item: Quick one: CC(C)(C)OC(=O)c1cc2c(cn1)[nH]c1ccc(C#Cc3ccc4[nH]c5cnc(C(=O)OC(C)(C)C)cc5c4c3)cc12
Reply: 30

Task item: Quick one: C#Cc1ccc2[nH]c3cnc(C(=O)OC(C)(C)C)cc3c2c1
Reply: 0.972

Task item: Quick one: O=C(OCC(F)(F)F)c1cc2c(cn1)[nH]c1ccc(-c3ccccc3)cc12
Reply: 25

Task item: Quick one: CC/C=C/C=C/Oc1cc2c(cn1)[nH]c1ccccc12
Reply: 245

Task item: Quick one: O=C(OCC(Cl)(Cl)Cl)c1cc2c(cn1)[nH]c1ccccc12
Reply: 10

Task item: Quick one: CC(C)(C)OC(=O)c1cc2c(cn1)[nH]c1ccc(I)cc12
Reply: 14.4

Task item: Quick one: O=C(OCC(F)(F)F)c1cc2c(cn1)[nH]c1ccc(-c3cccs3)cc12
Reply: 9.2

Task item: Quick one: O=C(OC(C(F)(F)F)C(F)(F)F)c1cc2c(cn1)[nH]c1ccccc12
Reply: 3.99

Task item: Quick one: O=C(OCC(F)(F)F)c1cc2c(cn1)[nH]c1ccc(-c3ccco3)cc12
Reply: 26

Task item: Quick one: CC(C)(C)OC(=O)c1cc2c(cn1)[nH]c1ccc(-c3ccco3)cc12
Reply: 2.4

Task item: Quick one: CCOC(=O)c1cc2c(cn1)[nH]c1ccc(I)cc12
Reply: 4.8

Task item: Quick one: C[Si](C)(C)C#Cc1ccc2[nH]c3cnc(C(=O)OCC(F)(F)F)cc3c2c1
Reply: 17

----------
- SUBJECT OF TEST: GABA-A receptor; alpha-3/beta-3/gamma-2 (Homo sapiens, UniProt P18507+P28472+P34903)
- Sequence (P18507 whole entry): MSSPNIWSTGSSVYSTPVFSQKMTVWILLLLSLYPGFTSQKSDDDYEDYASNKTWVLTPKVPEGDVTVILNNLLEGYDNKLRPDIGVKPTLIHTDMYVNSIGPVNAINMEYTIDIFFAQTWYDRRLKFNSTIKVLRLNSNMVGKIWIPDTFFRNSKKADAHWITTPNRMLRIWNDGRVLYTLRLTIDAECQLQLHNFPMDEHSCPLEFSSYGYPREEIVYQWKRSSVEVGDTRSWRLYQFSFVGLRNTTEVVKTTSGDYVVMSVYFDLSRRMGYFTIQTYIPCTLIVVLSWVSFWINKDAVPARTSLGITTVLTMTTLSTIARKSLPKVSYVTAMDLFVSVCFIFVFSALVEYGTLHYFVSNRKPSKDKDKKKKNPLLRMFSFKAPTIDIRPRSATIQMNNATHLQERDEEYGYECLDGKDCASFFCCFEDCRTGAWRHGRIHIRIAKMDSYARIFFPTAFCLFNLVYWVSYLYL
- Sequence (P28472 whole entry): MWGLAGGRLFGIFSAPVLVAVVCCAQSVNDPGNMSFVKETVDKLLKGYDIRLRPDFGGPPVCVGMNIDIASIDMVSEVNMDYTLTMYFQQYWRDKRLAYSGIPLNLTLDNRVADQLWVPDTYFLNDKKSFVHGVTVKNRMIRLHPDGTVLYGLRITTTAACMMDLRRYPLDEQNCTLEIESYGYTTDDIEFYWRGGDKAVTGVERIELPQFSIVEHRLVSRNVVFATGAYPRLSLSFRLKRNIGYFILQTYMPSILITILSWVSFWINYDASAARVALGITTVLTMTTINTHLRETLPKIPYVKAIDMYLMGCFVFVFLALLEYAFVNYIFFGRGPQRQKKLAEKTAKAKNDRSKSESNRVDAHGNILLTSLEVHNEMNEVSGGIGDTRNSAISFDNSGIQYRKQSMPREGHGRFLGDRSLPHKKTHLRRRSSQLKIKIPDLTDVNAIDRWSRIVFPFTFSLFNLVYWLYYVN
- Sequence (P34903 whole entry): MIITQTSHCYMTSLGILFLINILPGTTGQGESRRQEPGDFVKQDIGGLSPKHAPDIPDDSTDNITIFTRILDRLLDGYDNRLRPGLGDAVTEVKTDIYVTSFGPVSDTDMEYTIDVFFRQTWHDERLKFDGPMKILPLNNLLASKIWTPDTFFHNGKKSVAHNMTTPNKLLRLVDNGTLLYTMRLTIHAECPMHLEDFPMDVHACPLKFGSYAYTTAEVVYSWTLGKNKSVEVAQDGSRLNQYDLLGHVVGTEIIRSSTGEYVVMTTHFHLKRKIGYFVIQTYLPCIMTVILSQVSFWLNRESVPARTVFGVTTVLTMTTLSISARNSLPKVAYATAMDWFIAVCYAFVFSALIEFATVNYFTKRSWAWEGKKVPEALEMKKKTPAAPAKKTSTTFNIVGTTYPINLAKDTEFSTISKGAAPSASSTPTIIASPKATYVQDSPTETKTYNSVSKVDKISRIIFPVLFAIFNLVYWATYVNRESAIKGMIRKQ
- TEST DESCRIPTION: Displacement of [3H]flunitrazepam from human recombinant GABAA alpha-3-beta-3-gamma-2 receptor expressed in HEK cells by liquid scintillation counting
Kindly apply the following: 1 (yes) if Ki is less than 40 nM, 0 (no) in every other case.

Task item: Identify whether the molecule O=C(OCC(F)(F)F)c1cc2c(cn1)[nH]c1ccccc12 records Ki below 40 nM.
Reply: 0 (no)

Task item: Quick one: CC(C)(C)OC(=O)c1cc2c(cn1)[nH]c1ccc(-c3ccco3)cc12
Reply: 1 (yes)

Task item: Quick one: CC(C)(C)OC(=O)c1cc2c(cn1)[nH]c1ccc(-c3cccs3)cc12
Reply: 0 (no)

Task item: Quick one: O=C(OCC(F)(F)F)c1cc2c(cn1)[nH]c1ccc(-c3ccccc3)cc12
Reply: 0 (no)

Task item: Quick one: CC(C)CCOc1cc2c3ccccc3nc-2c[nH]1
Reply: 0 (no)

Task item: Quick one: CC(C)(C)OC(=O)c1cc2c(cn1)[nH]c1ccc(C#C[Si](C)(C)C)cc12
Reply: 1 (yes)

Task item: Quick one: C[Si](C)(C)C#Cc1ccc2[nH]c3cnc(C(=O)OCC(F)(F)F)cc3c2c1
Reply: 0 (no)

Task item: Quick one: CC(C)(C)OC(=O)c1ccc2[nH]c3ccc(C#Cc4ccc5[nH]c6ccc(C(=O)OC(C)(C)C)cc6c5c4)cc3c2c1
Reply: 0 (no)

Task item: Quick one: CC(C)(C)OC(=O)c1cc2c(cn1)[nH]c1ccc(F)cc12
Reply: 1 (yes)

Task item: Quick one: O=C(Oc1cc(F)c(F)cc1F)c1cc2c(cn1)[nH]c1ccccc12
Reply: 0 (no)

Task item: Quick one: O=C(OCC(F)(F)F)c1cc2c(cn1)[nH]c1ccc(I)cc12
Reply: 0 (no)

Task item: Quick one: C#Cc1ccc2[nH]c3cnc(C(=O)OCC(F)(F)F)cc3c2c1
Reply: 0 (no)

Task item: Quick one: O=C(OC(C(F)(F)F)C(F)(F)F)c1cc2c(cn1)[nH]c1ccccc12
Reply: 1 (yes)

Task item: Quick one: C[C@@H](OC(=O)c1cc2c(cn1)[nH]c1ccccc12)C(F)(F)F
Reply: 0 (no)

Task item: Quick one: O=C(OCC(F)(F)F)c1cc2c(cn1)[nH]c1ccc(-c3ccco3)cc12
Reply: 0 (no)

Task item: Quick one: O=C(OC(C(F)(F)F)C(F)(F)F)c1cc2c(cn1)[nH]c1ccc(I)cc12
Reply: 0 (no)

Task item: Quick one: CC(C)(C)OC(=O)c1cc2c(cn1)[nH]c1ccc(-c3ccccc3)cc12
Reply: 0 (no)

Task item: Quick one: C[C@H](OC(=O)c1cc2c(cn1)[nH]c1ccccc12)C(F)(F)F
Reply: 0 (no)

Task item: Quick one: CCOC(=O)c1cc2c(cn1)[nH]c1ccc(C#C[Si](C)(C)C)cc12
Reply: 1 (yes)

Task item: Quick one: CC(C)(C)OC(=O)c1cc2c(cn1)[nH]c1ccc(C#CC#Cc3ccc4[nH]c5cnc(C(=O)OC(C)(C)C)cc5c4c3)cc12
Reply: 0 (no)
